These measurements were taken from PubChem BioAssay (NCI).

Experiment: NCI Yeast Anticancer Drug Screen. Data for the rad50 strain (AID 155);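 further: 0% = growth of vehicle-only cultures of the same strain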
Conditions: S. cerevisiae rad50 strain growth inhibition; at 50.0 µM
Compounds without any hit were thinned out: in the full panel of roughly 79,000, 15% have a hit. Calls of active or inactive are those of the source. No stated cut-off is given here; in the data, active means growth inhibition above about 70%; inactive means the rest.
One label from this list, please: 1 for active, 0 for inactive

// known answers, use as guide
{"compound": "CC1(C)OCCS1", "group label": 0}
{"compound": "COc1ccc(OC2OC(CO)C(OCc3ccccc3)C(OCc3ccccc3)C2OCc2ccccc2)cc1 (configuration not stated)", "group label": 0}
{"compound": "Cc1noc(NC2=CC(=O)C(=O)c3ccccc32)c1C", "group label": 0}

Problem: For this compound, state the assay outcome: COc1cc([C@@H]2c3cc4c(cc3[C@H](OC(=O)CCCC(=O)O)[C@H]3COC(=O)[C@H]23)OCO4)cc(OC)c1OC
Result: 0

Problem: For this compound, state the assay outcome: CN(c1ccccc1)C1C(=O)N(c2ccccc2)C1/C=C/c1ccccc1 (configuration not stated)
Result: 0

Problem: For this compound, state the assay outcome: COc1cc(C2c3cc4c(cc3OC(NNC(N)=O)C2C)OCO4)cc(OC)c1OC (configuration not stated)
Result: 0

Problem: For this compound, state the assay outcome: Oc1c(Cl)cccc1CN1CCOCC1
Result: 0

Problem: For this compound, state the assay outcome: CC(O)CN(CC(C)O)c1ccc2c(c1)Cc1ccccc1-2 (configuration not stated)
Result: 0

Problem: For this compound, state the assay outcome: Nc1ccc(NC(=O)Nc2ccc(N)cc2)cc1
Result: 0

Problem: For this compound, state the assay outcome: O=C(NC(CC(NC(=O)OCc1ccccc1)NC(=O)OCc1ccccc1)NC(=O)OCc1ccccc1)OCc1ccccc1
Result: 0

Problem: For this compound, state the assay outcome: CCCCOc1ccc(N)cn1
Result: 0

Problem: For this compound, state the assay outcome: C#CCN(CC#C)C(=O)CCCCCCCCC=C
Result: 1

====

Experiment: NCI Yeast Anticancer Drug Screen. Data for the cln2 rad14 strain (AID 165);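 further: 0% = growth equal to vehicle treated cultures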
Conditions: S. cerevisiae cln2 rad14 strain, at 50.0 µM, active compounds read high
The panel holds about 79,000 compounds, 15% with a hit somewhere; the sample as a whole holds those more often.
readout name: growth inhibition (%)
State the answer as a number, implicitly in %.

{"compound": "CCOCCOCCOC(=O)CC(C)=O", "growth inhibition (%)": -22.3}
{"compound": "C1=N/C=C\\C=C/c2ccc[n+](CCCCC[n+]3ccccc3-c3ccccn3)c21", "growth inhibition (%)": 63.1}

Turning now to a further compound:
Problem: # get_value(readout='growth inhibition', item= CCC(=O)O[C@@H]1C2C(OC(C)=O)C34COC(C)([C@@H]3C3C(C[C@]3(C)OC(C)=O)[C@@H](OC(=O)c3ccccc3)C4=O)[C@H](OC(C)=O)[C@@]2(OC(C)=O)C[C@@H]1C (stereo partly specified) )
Result: 0.45

====

In this section, each of the compounds is paired with its reported growth inhibition.
Test: NCI Yeast Anticancer Drug Screen. Data for the rad50 strain (AID 155);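 further: 0% = growth of vehicle-only cultures of the same strain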
Details: S. cerevisiae rad50 strain growth inhibition; at 50.0 µM; active compounds read high
About 79,000 compounds went through this panel and 15% of them were active in at least one assay; those are over-represented in the sample as a whole.
State the answer as a number, implicitly in %.

Problem: # get_value(readout='growth inhibition', item= CCCCCOC(=O)CC(c1ccccc1)N1CCCCC1 (stereo not drawn) )
Result: 32.5

Problem: # get_value(readout='growth inhibition', item= Cn1c2ccccc2c2nn3cnnc3nc21 )
Result: 18.1

Problem: # get_value(readout='growth inhibition', item= CCOC(=O)C1=NN(c2ccccc2)C(=O)/C1=C\n1ccc(=O)[nH]c1=S )
Result: -32.5
